Target: human SGLT2 (Homo sapiens)
Construct: expressed in transfected cells; host or cells: CHO-k1
Sequence (P31639 1-672): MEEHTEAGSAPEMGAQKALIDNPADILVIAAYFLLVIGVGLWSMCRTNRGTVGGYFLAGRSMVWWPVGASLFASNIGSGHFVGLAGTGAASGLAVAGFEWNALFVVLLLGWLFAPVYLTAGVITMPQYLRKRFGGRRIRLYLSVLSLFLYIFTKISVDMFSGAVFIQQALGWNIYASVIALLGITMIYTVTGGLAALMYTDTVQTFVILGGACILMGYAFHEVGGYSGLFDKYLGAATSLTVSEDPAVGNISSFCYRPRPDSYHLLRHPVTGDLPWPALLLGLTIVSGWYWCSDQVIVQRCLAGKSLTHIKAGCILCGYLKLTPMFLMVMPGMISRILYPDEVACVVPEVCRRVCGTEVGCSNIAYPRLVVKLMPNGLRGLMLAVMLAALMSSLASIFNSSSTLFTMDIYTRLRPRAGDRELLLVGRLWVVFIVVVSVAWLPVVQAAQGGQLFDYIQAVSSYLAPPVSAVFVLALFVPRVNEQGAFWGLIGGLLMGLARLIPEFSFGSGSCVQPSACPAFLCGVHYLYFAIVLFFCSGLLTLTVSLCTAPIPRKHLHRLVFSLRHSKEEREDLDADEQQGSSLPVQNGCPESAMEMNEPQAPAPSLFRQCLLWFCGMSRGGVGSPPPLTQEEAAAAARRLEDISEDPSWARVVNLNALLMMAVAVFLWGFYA
Assay: Inhibition test of sodium-dependent sugar uptake in CHO-k1 cells stably expressing human SGLT2
Format: cell-based
Conditions: sugar uptake inhibition rate at 100 nM test compound vs control group
Below, each entry is listed alongside its reported SGLT2 % inhibition at 100 nM.
measuredProperty: SGLT2 % inhibition at 100 nM

| compound | targetOrSystem | result |
| --- | --- | --- |
| CSCC[C@@H](CO)NC(=O)NCCc1ccc(Cc2cc([C@@H]3O[C@H](CO)[C@@H](O)[C@H](O)[C@H]3O)c(O)cc2C)cc1 [Compound 47] | human SGLT2 (Homo sapiens) | 89% |
| Cc1cc(O)c(C2OC(CO)C(O)C(O)C2O)cc1Cc1ccc(CCNC(=O)Nc2ccccc2C(O)c2ccccc2)cc1 (mixture of isomers) [Compound 137] | human SGLT2 (Homo sapiens) | 79% |
| Cc1cc(O)c([C@@H]2O[C@H](CO)[C@@H](O)[C@H](O)[C@H]2O)cc1Cc1ccc(CCNC(=O)N(CC(C)C)CC(C)C)cc1 [Compound 59] | human SGLT2 (Homo sapiens) | 86% |
| Cc1cc(O)c(C2OC(CO)C(O)C(O)C2O)cc1Cc1ccc(CCNC(=O)NC2CC3CCC2C3)cc1 (mixture of isomers) [Compound 124] | human SGLT2 (Homo sapiens) | 79% |
| COC(=O)C(NC(=O)NCCc1ccc(Cc2cc(C3OC(CO)C(O)C(O)C3O)c(O)cc2C)cc1)C(C)(C)C (stereo not drawn) [Compound 54] | human SGLT2 (Homo sapiens) | 73% |
| Cc1cc(O)c([C@@H]2O[C@H](CO)[C@@H](O)[C@H](O)[C@H]2O)cc1Cc1ccc(CCNC(=O)NCC2CCCO2)cc1 (stereo partly drawn) [Compound 65] | human SGLT2 (Homo sapiens) | 76% |

----------
target: human SGLT1 (Homo sapiens, UniProt P13866); construct: expressed in transfected cells; host or cells: CHO-k1; experiment: Inhibition test of sodium-dependent sugar uptake in CHO-k1 cells stably expressing human SGLT1; format: cell-based; conditions: sugar uptake inhibition rate at 100 nM test compound vs control group
Sequence (P13866 whole entry): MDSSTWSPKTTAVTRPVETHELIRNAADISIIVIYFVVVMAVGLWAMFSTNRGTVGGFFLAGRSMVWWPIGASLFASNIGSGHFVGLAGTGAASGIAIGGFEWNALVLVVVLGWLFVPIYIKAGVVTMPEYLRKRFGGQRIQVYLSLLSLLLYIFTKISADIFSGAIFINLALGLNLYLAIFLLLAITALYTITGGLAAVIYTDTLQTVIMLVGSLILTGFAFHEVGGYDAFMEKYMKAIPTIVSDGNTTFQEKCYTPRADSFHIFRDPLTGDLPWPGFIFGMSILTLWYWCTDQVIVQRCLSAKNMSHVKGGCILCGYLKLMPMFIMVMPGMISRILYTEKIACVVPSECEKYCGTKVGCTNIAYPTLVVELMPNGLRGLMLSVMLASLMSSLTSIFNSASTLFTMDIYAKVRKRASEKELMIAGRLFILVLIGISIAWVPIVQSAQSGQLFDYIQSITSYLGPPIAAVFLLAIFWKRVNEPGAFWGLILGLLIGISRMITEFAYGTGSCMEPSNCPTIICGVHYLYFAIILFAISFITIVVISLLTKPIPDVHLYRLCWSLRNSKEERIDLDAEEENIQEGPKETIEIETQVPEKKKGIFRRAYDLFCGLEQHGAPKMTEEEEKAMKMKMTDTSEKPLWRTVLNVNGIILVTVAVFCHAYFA
Param threshold (70%) applies to SGLT1 % inhibition at 100 nM; output Y when value >= threshold, N when value < threshold.

| compound | assignedCategory |
| --- | --- |
| Cc1cc(O)c([C@@H]2O[C@H](CO)[C@@H](O)[C@H](O)[C@H]2O)cc1Cc1ccc(CCNC(=O)NCCN2CCCCC2)cc1 | N |
| COC(=O)C(NC(=O)NCCc1ccc(Cc2cc(C3OC(CO)C(O)C(O)C3O)c(O)cc2C)cc1)C(C)(C)C (stereo not drawn) | Y |
| Cc1cc(O)c(C2OC(CO)C(O)C(O)C2O)cc1Cc1ccc(CCNC(=O)NC(CO)CC(C)C)cc1 (stereo not drawn) | Y |
| Cc1cc(O)c(C2OC(CO)C(O)C(O)C2O)cc1Cc1ccc(CCNC(=O)NC2CCN(Cc3ccccc3)C2)cc1 (mixture of isomers) | Y |
| Cc1cc(O)c([C@@H]2O[C@H](CO)[C@@H](O)[C@H](O)[C@H]2O)cc1Cc1ccc(CCNC(=O)NCc2ccccc2)cc1 | N |

----------
target: human SGLT2 (Homo sapiens, UniProt P31639); construct: expressed in transfected cells; host or cells: CHO-k1; test: Inhibition test of sodium-dependent sugar uptake in CHO-k1 cells stably expressing human SGLT2; type: cell-based; settings: sugar uptake inhibition rate at 100 nM test compound vs control group
Reported values of SGLT2 % inhibition at 100 nM for individual entries

| compound | targetOrSystem | SGLT2 % inhibition at 100 nM |
| --- | --- | --- |
| COc1cccc(CCNC(=O)NCCc2ccc(Cc3cc([C@@H]4O[C@H](CO)[C@@H](O)[C@H](O)[C@H]4O)c(O)cc3C)cc2)c1 | human SGLT2 (Homo sapiens, UniProt P31639) | 84% |
| Cc1cc(O)c([C@@H]2O[C@H](CO)[C@@H](O)[C@H](O)[C@H]2O)cc1Cc1ccc(CCNC(=O)NC(CO)C(C)C)cc1 (stereo partly drawn) | human SGLT2 (Homo sapiens, UniProt P31639) | 86% |
| CCC(CO)(CO)NC(=O)NCCc1ccc(Cc2cc([C@@H]3O[C@H](CO)[C@@H](O)[C@H](O)[C@H]3O)c(O)cc2C)cc1 | human SGLT2 (Homo sapiens, UniProt P31639) | 83% |

----------
molecular target: human SGLT1 (Homo sapiens); experiment: Inhibition test of sodium-dependent sugar uptake in CHO-k1 cells stably expressing human SGLT1; details: CHO-k1 cells expressing human SGLT1; [14C]methyl α-D-glucopyranoside uptake, 37° C., 30 minutes
pIC50: −log10 of the molar value.
Mark Not met for pIC50 values under 7, and Met for everything at or above.

| substanceSmiles | assignedCategory |
| --- | --- |
| Cc1cc(O)c([C@@H]2O[C@H](CO)[C@@H](O)[C@H](O)[C@H]2O)cc1Cc1ccc(CCCC(=O)NC(C)(C)C(N)=O)cc1 | Met |
| Cc1cc(O)c([C@@H]2O[C@H](CO)[C@@H](O)[C@H](O)[C@H]2O)cc1Cc1ccc(CCNC(=O)NCc2cc(Cl)cc(Cl)c2)cc1 | Met |
| Cc1cc(O)c([C@@H]2O[C@H](CO)[C@@H](O)[C@H](O)[C@H]2O)cc1Cc1ccc(OCCNC(=O)NC(CO)(CO)CO)cc1 | Not met |
| COC(=O)CCNC(=O)NCCc1ccc(Cc2cc([C@@H]3O[C@H](CO)[C@@H](O)[C@H](O)[C@H]3O)c(O)cc2C)cc1 | Not met |
| Cc1cc(O)c([C@@H]2O[C@H](CO)[C@@H](O)[C@H](O)[C@H]2O)cc1Cc1ccc(CCNC(=O)NC2CCN(Cc3ccccc3)CC2)cc1 | Met |
| Cc1cc(O)c([C@@H]2O[C@H](CO)[C@@H](O)[C@H](O)[C@H]2O)cc1Cc1ccc(CCNC(=O)N[C@@H](CC(C)C)C(N)=O)cc1 | Met |

----------
molecular target: human SGLT2 (Homo sapiens, UniProt P31639); experiment: Inhibition test of sodium-dependent sugar uptake in CHO-k1 cells stably expressing human SGLT2; settings: CHO-k1 cells expressing human SGLT2; [14C]methyl α-D-glucopyranoside uptake, 37° C., an hour
Item-by-item account of IC50

| compound | targetOrSystem | IC50 |
| --- | --- | --- |
| COC(=O)CCNC(=O)NCCc1ccc(Cc2cc([C@@H]3O[C@H](CO)[C@@H](O)[C@H](O)[C@H]3O)c(O)cc2C)cc1 [Compound 32] | human SGLT2 (Homo sapiens, UniProt P31639) | 44 nM |
| O=C(NCCc1ccc(Cc2cc([C@@H]3O[C@H](CO)[C@@H](O)[C@H](O)[C@H]3O)c(O)cc2Cl)cc1)NC(CO)(CO)CO [Compound 14] | human SGLT2 (Homo sapiens, UniProt P31639) | 21 nM |
| Cc1cc(O)c([C@@H]2O[C@H](CO)[C@@H](O)[C@H](O)[C@H]2O)cc1Cc1ccc(CCNC(=O)N[C@@H](CC(C)C)C(N)=O)cc1 [Compound 24] | human SGLT2 (Homo sapiens, UniProt P31639) | 25 nM |

----------
Biological target: human SGLT1 (Homo sapiens)
Experiment: Inhibition test of sodium-dependent sugar uptake in CHO-k1 cells stably expressing human SGLT1
Details: CHO-k1 cells expressing human SGLT1; [14C]methyl α-D-glucopyranoside uptake, 37° C., 30 minutes
Experimental: An SGLT1 sequence (NM_000343) was reverse-transcripted from human small intestinal mRNA, then amplified, and then introduced into pCMV-tag5A from Stratagene Corporation. […] The cells were incubated in a pretreatment buffer A (200 μL for SGLT1, and 2 mL for SGLT2) for 20 minutes. […] After a liquid scintilater was added thereto and mixed sufficiently, radioactivity was measured with microBETA (SGLT1) or a liquid scintillation counter from Beckman Coulter, Inc (SGLT2). […]
Mark Y only for IC50 values smaller than 60 nM; exact matches and larger values are N.

| compound | assignedCategory |
| --- | --- |
| Cc1cc(O)c([C@@H]2O[C@H](CO)[C@@H](O)[C@H](O)[C@H]2O)cc1Cc1ccc(CCNC(=O)N2CCC(C)CC2)cc1 | N |
| Cc1cc(O)c([C@@H]2O[C@H](CO)[C@@H](O)[C@H](O)[C@H]2O)cc1Cc1ccc(CCCC(=O)NC(C)(C)CO)cc1 | Y |
| Cc1cc(O)c([C@@H]2O[C@H](CO)[C@@H](O)[C@H](O)[C@H]2O)cc1Cc1ccc(CCNC(=O)NC2CN3CCC2CC3)cc1 (stereo partly shown) | Y |
| CSCCNC(=O)NCCc1ccc(Cc2cc([C@@H]3O[C@H](CO)[C@@H](O)[C@H](O)[C@H]3O)c(O)cc2C)cc1 | N |
| Cc1cc(O)c([C@@H]2O[C@H](CO)[C@@H](O)[C@H](O)[C@H]2O)cc1Cc1ccc(CCNC(=O)NC(C)(C)C(=O)N2CCN(C)CC2)cc1 | N |
| O=C(NCCc1ccc(Cc2cc([C@@H]3O[C@H](CO)[C@@H](O)[C@H](O)[C@H]3O)c(O)cc2Cl)cc1)NC(CO)(CO)CO | Y |
| CCCN(CC1CC1)C(=O)NCCc1ccc(Cc2cc([C@@H]3O[C@H](CO)[C@@H](O)[C@H](O)[C@H]3O)c(O)cc2C)cc1 | N |
| Cc1cc(O)c([C@@H]2O[C@H](CO)[C@@H](O)[C@H](O)[C@H]2O)cc1Cc1ccc(CCNC(=O)NCC2CCCCC2)cc1 | N |
| COC(=O)[C@H](Cc1ccccc1)NC(=O)NCCc1ccc(Cc2cc([C@@H]3O[C@H](CO)[C@@H](O)[C@H](O)[C@H]3O)c(O)cc2C)cc1 | Y |
| Cc1cc(O)c([C@@H]2O[C@H](CO)[C@@H](O)[C@H](O)[C@H]2O)cc1Cc1ccc(CCNC(=O)NCc2cccs2)cc1 | Y |
| Cc1cc(O)c([C@@H]2O[C@H](CO)[C@@H](O)[C@H](O)[C@H]2O)cc1Cc1ccc(CCNC(=O)NCCN2CCCC2)cc1 | N |
| Cc1cc(O)c([C@@H]2O[C@H](CO)[C@@H](O)[C@H](O)[C@H]2O)cc1Cc1ccc(CCNC(=O)NC2CCCc3ccccc32)cc1 (stereo partly shown) | N |
| COC(=O)CNC(=O)NCCc1ccc(Cc2cc([C@@H]3O[C@H](CO)[C@@H](O)[C@H](O)[C@H]3O)c(O)cc2C)cc1 | N |
| O=C(NCCc1ccc(Cc2cc([C@@H]3O[C@H](CO)[C@@H](O)[C@H](O)[C@H]3O)ccc2Cl)cc1)NC(CO)(CO)CO | N |
| Cc1cc(O)c([C@@H]2O[C@H](CO)[C@@H](O)[C@H](O)[C@H]2O)cc1Cc1ccc(CCNC(=O)NC2(CO)CCCC2)cc1 | Y |

Origin of values: patent US7973012B2
